Experimental target: NET (Homo sapiens)
Sequence (P23975 whole entry): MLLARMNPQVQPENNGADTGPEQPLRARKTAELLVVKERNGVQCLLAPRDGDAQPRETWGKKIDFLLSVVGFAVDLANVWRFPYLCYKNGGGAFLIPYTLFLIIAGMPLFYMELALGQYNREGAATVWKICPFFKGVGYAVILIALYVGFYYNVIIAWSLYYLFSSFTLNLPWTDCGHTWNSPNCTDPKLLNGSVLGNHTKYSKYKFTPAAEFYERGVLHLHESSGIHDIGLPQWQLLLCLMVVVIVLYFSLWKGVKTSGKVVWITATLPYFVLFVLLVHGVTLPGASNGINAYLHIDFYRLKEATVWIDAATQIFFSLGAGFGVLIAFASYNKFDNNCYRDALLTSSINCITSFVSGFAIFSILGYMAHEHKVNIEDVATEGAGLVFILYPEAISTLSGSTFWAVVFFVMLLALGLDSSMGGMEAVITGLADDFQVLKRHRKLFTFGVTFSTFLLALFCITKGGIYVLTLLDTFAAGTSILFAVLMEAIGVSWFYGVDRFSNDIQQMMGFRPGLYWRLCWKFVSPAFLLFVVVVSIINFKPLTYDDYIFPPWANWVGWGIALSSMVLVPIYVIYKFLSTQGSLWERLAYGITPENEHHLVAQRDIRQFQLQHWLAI
Experimental protocol: fluorescence-based norepinephrine uptake assay (Tsuruda et al. 2010)
Type: cell-based
Condition label: norepinephrine reuptake inhibition, fluorescence-based assay (data indicated by an asterisk); read-out: NET pIC50 (converted)
Quick reference for IC50 among some compounds

Past entries and their recorded results:
CCOC[C@@H](Oc1cccc(Cl)c1C)[C@H]1CCNC1    ≤ 0.01 µM
CCOC[C@H](Oc1ccc(Cl)c(Cl)c1F)[C@H]1CCNC1    ≤ 0.01 µM
Cc1c(Cl)cccc1O[C@@H](COC(C)C)[C@H]1CCNC1    ≤ 0.01 µM
CC(C)OC[C@H](Oc1cccc(C(F)(F)F)c1)[C@@H]1CCNC1    ≤ 1 µM
CCOC[C@H](Oc1cccc(Cl)c1Cl)[C@H]1CCNC1    ≤ 0.01 µM

# compound CSC[C@H](Oc1ccc(Cl)cc1C)[C@H]1CCNC1 ; its IC50 = ≤ 0.01 µM

# compound CC(C)OC[C@H](Oc1cccc(C(F)(F)F)c1)[C@H]1CCNC1 ; its IC50 = ≤ 0.1 µM

# compound CC(C)OC[C@H](Oc1cccc(Cl)c1Cl)[C@@H]1CCNC1 ; its IC50 = ≤ 0.1 µM

# compound CC(C)OC[C@H](Oc1cccc(F)c1Cl)[C@H]1CCNC1 ; its IC50 = ≤ 0.01 µM

---

Experimental target: NET (Homo sapiens)
Experimental protocol: fluorescence-based norepinephrine uptake assay (Tsuruda et al. 2010)
Type: cell-based
Condition label: norepinephrine reuptake inhibition, fluorescence-based assay (data indicated by an asterisk); read-out: NET pIC50 (converted)
Quantity: IC50

Past entries and their recorded results:
CC(C)OC[C@H](Oc1cccc(Cl)c1Cl)[C@H]1CCNC1 [Example 9-7]    ≤ 10 nM
CCOC[C@H](Oc1cc(F)cc(Cl)c1)[C@H]1CCNC1 [Example 7-28]    ≤ 10 nM
CC(C)SC[C@H](Oc1cccc(Cl)c1C(F)(F)F)[C@H]1CCNC1 [Example 18]    ≤ 10 nM

# compound CCOC[C@H](Oc1cccc(F)c1Cl)[C@H]1CCNC1 [Example 7-9] ; its IC50 = ≤ 10 nM

# compound CCOC[C@@H](Oc1cccc(F)c1Cl)[C@H]1CCNC1 [Example 7-10] ; its IC50 = ≤ 10 nM

# compound CC(C)OC[C@H](Oc1c(Cl)cccc1Cl)[C@@H]1CCNC1 [Example 9-27] ; its IC50 = ≤ 100 nM

# compound CC(C)OC[C@H](Oc1cccc(F)c1Cl)[C@@H]1CCNC1 [Example 9-10] ; its IC50 = ≤ 100 nM

# compound CC(C)SC[C@H](Oc1cccc(Cl)c1Cl)[C@H]1CCNC1 [Example 19-1] ; its IC50 = ≤ 10 nM

# compound CCOC[C@H](Oc1cc(Cl)cc(Cl)c1)[C@H]1CCNC1 [Example 7-27] ; its IC50 = ≤ 10 nM

---

Quick reference for IC50 among some compounds
Experimental target: SERT (Homo sapiens, UniProt P31645)
Sequence (P31645 whole entry, species assumed): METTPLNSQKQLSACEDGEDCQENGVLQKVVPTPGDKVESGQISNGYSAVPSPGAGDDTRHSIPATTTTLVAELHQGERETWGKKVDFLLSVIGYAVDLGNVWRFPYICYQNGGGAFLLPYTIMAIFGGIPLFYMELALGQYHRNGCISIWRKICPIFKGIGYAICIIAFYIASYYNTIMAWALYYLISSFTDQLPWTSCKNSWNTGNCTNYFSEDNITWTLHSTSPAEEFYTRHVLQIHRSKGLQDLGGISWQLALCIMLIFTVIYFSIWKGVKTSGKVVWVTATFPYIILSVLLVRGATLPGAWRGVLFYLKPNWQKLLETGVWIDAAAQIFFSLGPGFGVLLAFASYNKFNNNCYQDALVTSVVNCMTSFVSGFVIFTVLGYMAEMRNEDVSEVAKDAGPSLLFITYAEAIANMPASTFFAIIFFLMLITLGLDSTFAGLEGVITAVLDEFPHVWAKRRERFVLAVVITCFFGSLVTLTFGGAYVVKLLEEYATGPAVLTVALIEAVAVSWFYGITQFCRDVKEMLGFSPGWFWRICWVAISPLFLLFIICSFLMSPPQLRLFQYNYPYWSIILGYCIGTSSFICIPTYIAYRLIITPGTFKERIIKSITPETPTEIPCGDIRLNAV
Experimental protocol: fluorescence-based serotonin uptake assay (Tsuruda et al. 2010)
Type: cell-based
Condition label: serotonin reuptake inhibition, fluorescence-based assay (data indicated by an asterisk); read-out: SERT pIC50 (converted)

Past entries and their recorded results:
CCOC[C@@H](Oc1ccc(Cl)cc1Cl)[C@H]1CCNC1    ≤ 10 nM
CC(C)OC[C@@H](Oc1c(Cl)cccc1Cl)[C@H]1CCNC1    ≤ 100 nM
CCOC[C@H](Oc1cccc(Cl)c1C(F)(F)F)[C@H]1CCNC1    ≤ 10 nM
CCOC[C@H](Oc1c(Cl)cc(F)cc1Cl)[C@H]1CCNC1    ≤ 100 nM

# compound OC[C@@H](Oc1cccc(Cl)c1Cl)[C@@H]1CCNC1 (stereo in doubt) ; its IC50 = ≤ 100 nM
